# Assayed system: T1, his-tagged B7-H3 (UniProt Q5ZPR3-2 29-245, limits assumed)
# T1 construct: also called CD276; not shown: His tag
# T1 sequence (looked up): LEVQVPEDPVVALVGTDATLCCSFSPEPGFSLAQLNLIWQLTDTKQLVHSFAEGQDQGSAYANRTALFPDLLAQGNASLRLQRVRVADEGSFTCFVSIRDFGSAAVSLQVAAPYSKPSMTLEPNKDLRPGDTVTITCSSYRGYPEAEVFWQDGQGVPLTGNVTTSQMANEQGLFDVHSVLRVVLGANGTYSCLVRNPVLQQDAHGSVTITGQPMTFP
# Assay details: SPR, Carterra LSA; binder captured by anti-human Fc, his-tagged B7-H3 injected
Simple rule here: kon less than 400000 M⁻¹ s⁻¹ is True, otherwise False.

Check out these entries, answers already filled in.
- Binder: "40511p1.1.G1 scFv-Fc (scFv, V domains shown, Tested as scFv-Fc supernatant) VH: DVQLVESGGGVVRPGESLRLSCAASGFTFSSYAESWVRQAPGEGLEWVSIISGSGGNTFYADSVKGRFTISRDNSKNTLYLQMNSLRAEDTAVYYCARFAYGFFDYWGLGTLVTVSS VL: EIVLTQSPGTLSVSPGEGATLSCRASQTVGSKLAWYQQKPGQPPSLLIYDASTRATGIPDRFSGSGSGTDFTLTISSLQSEDFAVYYCQQYRNWPPLTFGGGTKVEIK"
  Category label: "False"
- Binder: "40579p1.F7 scFv-Fc (scFv, V domains shown, Tested as scFv-Fc supernatant) VH: EVQLLESGGGLVQPGGSLRLSCAASGFTFSDYYMSWVRQAPGKGLEWVSGISISYGGNAYYADSVKGRFTVSRDNSKNTLYLQMNSLRAEDTAVYYCGRDRSPYQYRSMDVWGQGTTVTVSS VL: EIVLTQSPGTLSLSPGERATLTCRASQSVGDFLAWYQQKPGQAPRLLIYGASTRAAGIPARFRGSGSGTDFTLTISSLQSEDFAVYYCQQYKNWPPLTFGGGTKVEIK"
  Category label: "True"

Consider now this further binder.
Problem: In plain terms, does 40633p1.2.A10 scFv-Fc (scFv, V domains shown, Tested as scFv-Fc supernatant) VH: EVQLLESGGGLVQPGGSLRLSCAASGFTVSYYGMSWVRQAPGKGLEWVSVIKQDGSEEYYADSVKGRFTISRDNSKNTLYLQMNSLRAEDTAVYYCARHWNDYSNGMNVWGQGTTVTVSS VL: QSVLTQPPSASGTPGQRVTISCSGSTSNVGDRYVYWYQQLPGTAPKLLIYLDDQRPSGVPDRFSGSKSGTSASLAISGLQSEDEADYYCASWDASLNGWVFGGGTKLTVL come in under 400000 M⁻¹ s⁻¹ for kon?
Solution: False
